Data origin: patent US3989701A

Test system: liver microsomal enzymes
Assay: Enzyme inductive effect (shortening of duration of sleeping after hexobarbital)
Format: in vivo, Wistar female rats
Details: Dosage 60 mg./kg. p.o.; hexobarbital 40 mg./kg. i.v. 24 hours later; control 27.4 ± 3.02
property-name: Average duration of sleeping ± S.E. (min)
Answer format: numeric, min implied, no suffix.

Observe how each entry below is paired with its result.
{"compound": "CCCCCCCCCCCCCCCC(=O)Nc1cc(C(=O)c2ccccc2)ccc1N1CCOCC1", "target-of-assay": "liver microsomal enzymes", "measurement-unit": "min", "quantitative-result": 10.4}
{"compound": "CC(C)CN(CC(C)C)c1ccc(C(=O)c2ccccc2)cc1N", "target-of-assay": "liver microsomal enzymes", "measurement-unit": "min", "quantitative-result": 10.0}
{"compound": "CCC(=O)Nc1cc(C(=O)c2ccccc2)ccc1N1CCOCC1.Cl", "target-of-assay": "liver microsomal enzymes", "measurement-unit": "min", "quantitative-result": 9.0}
{"compound": "CCC1(c2ccccc2)C(=O)NC(=O)NC1=O [Phenobarbital, reference compound]", "target-of-assay": "liver microsomal enzymes", "measurement-unit": "min", "quantitative-result": 5.4}

For the next question, use this compound.
QUERY: Quickly give me recorded Average duration of sleeping ± S.E. for CCN(c1ccccc1)c1ccc(C(=O)c2ccccc2)cc1N
RESULT: 11.6
